- assayTarget: hMT1 (Homo sapiens)
- Sequence (P48039 whole entry): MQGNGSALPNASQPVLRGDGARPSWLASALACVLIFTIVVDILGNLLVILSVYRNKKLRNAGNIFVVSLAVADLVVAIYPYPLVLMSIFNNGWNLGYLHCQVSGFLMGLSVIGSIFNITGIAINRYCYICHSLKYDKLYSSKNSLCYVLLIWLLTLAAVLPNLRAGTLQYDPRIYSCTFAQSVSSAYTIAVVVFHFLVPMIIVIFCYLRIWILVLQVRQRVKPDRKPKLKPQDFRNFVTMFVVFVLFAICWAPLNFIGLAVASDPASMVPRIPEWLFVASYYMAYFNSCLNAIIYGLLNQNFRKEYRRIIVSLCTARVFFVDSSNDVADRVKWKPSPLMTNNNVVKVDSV
- protocolDetails: cAMP assay (GloSensor), isoproterenol-stimulated cAMP in HEK cells
- Assay type: cell-based
- Set-up: expressed in transfected cells; host or cells: HEK-T (HEK-293 T) cells, co-transfected with GloSensor DNA
- conditionDescription: HEK293, Table 2; agonist; normalized to melatonin response; read-out: MT1 % Emax (converted)
Parameter class (string): assigned from measured Emax. Ranges: small value (below 60%), mid value (60% to below 90%), large value (90% or more)

// known answers, use as guide
| smi | labelClass |
| --- | --- |
| COC(=O)c1csc(CSc2nnc(C3CC3)[nH]2)c1 | large value |
| COc1ccc(CNc2cccnc2)cc1 | small value |
| COC(=O)c1cc(Cn2nc(C)c(N)c2C)c(C)s1 | small value |
| COc1ccc(Br)c(CNc2cccnc2)c1 | mid value |
| COc1ccc(CNc2cccnc2C)cc1C | mid value |
| COc1ccc2c(c1)N(Cc1ccn(C)c(=O)c1)CCO2 | large value |
| COc1ccc(CN(C(=O)c2ccccc2F)c2ccncc2)cc1 | small value |
| CN(Cc1ccc2c(c1)OCO2)c1ccnc(Cl)c1 | mid value |

// switching to the query molecule
Which class does COc1ccc(CNc2cccc(-n3nccn3)c2)cc1 fall in?
small value

All figures here come from patent US20230052740A1.
